Task for the reader: assign each of the following molecules its reported TGI.
System: M14 melanoma
MEASUREMENT DESCRIPTION: NCI tumour cell line growth inhibition, 48 h

Please give measured TGI of the following entry: CC(=O)[CH-]C(C)=O.[CH2-]C.[CH2-]C.[Tl+3]
> 100 µM

Answer with the recorded TGI for the molecule listed here: COc1nc(C#CCC(C)O)nc(OC)n1 (configuration not stated)
39.6 µM

# return recorded TGI for entry N#CCCN(CCC#N)c1ccc(/C=C2\N=C(c3ccccc3)N(c3ccc(Cl)cc3)C2=O)cc1
> 100 µM

State, in one line, measured TGI of COc1ccc(C#CC(=O)O)c(OC)c1
> 100 µM

# return recorded TGI for entry COc1ccc(C2(CC(C)O)SCCCS2)cc1 (configuration not stated)
> 100 µM

Read off the recorded TGI for Cc1cc(Nc2nc(SCc3ccc(C(=O)Nc4ccc(F)cc4N)cc3)nn3cccc23)n[nH]1
15.7 µM

In one line, give reported TGI of the entry CC(C)/C(Cl)=N\OC(=O)Nc1ccc(C#N)cc1 .
7.85 µM

Look up and report measured TGI for this entry: O=C1c2cccnc2-c2nc(-c3ccncc3)cc3c2c1nc1ccccc13
31.6 µM

For the molecule CC(=O)OCC1OC(n2cc([N+](=O)[O-])c(=O)[nH]c2=O)C(OC(C)=O)C(OC(C)=O)C1OC(C)=O (configuration not stated) , give its measured TGI value.
> 100 µM

// Input: O=c1ncccn1C1C=C(CO)C(O)C1O (configuration not stated) . Output its TGI only.
> 50 µM

Answer with the recorded TGI of C=CCn1c(=O)ccn(COCCO)c1=O only.
> 100 µM

Specify measured TGI for CC(=O)O[C@]12CCCCCC1C1(O)C(O)CCC[C@H]12 (some centres not stated) .
> 100 µM

###

Tested on: TK-10 renal
MEASUREMENT DESCRIPTION: NCI tumour cell line growth inhibition, 48 h
RECORDED METRIC: log10 TGI (log10 of the value in µM)
The figures below represent log10 of TGI, where TGI is stated in µM.

Identify measured log10 TGI associated with COc1ccc2nc3cc(Cl)ccc3c(NCCCNCCCNc3c4ccc(Cl)cc4nc4ccc(OC)cc34)c2c1
-0.23

Look up and state reported log10 TGI for OC(c1ccc(Br)cc1)(c1cccs1)C1CC1 (stereo unspecified)
1.88

Identify measured log10 TGI associated with O=C(c1ccc2ccccc2c1)c1c(C(F)(F)F)n([O-])c2ccc(Cl)cc2[n+]1=O
0.53

Annotate the compound O=P(c1ccccc1)(c1ccccc1)N1O[C@@H](c2ccccc2)C=C[C@H]1c1ccccc1 with its measured log10 TGI.
1.44

Quote log10 TGI reported for COc1nc(C#CCC(C)O)nc(OC)n1 (stereo unspecified) please.
1.76

Indicate its recorded log10 TGI; the compound in question is O=C(NCCCN(CCCCN(CCCNC(=O)C(F)(F)F)Cc1ccccc1)Cc1ccccc1)C(F)(F)F
1.73

###

Test system: SF-268 CNS
MEASUREMENT DESCRIPTION: NCI tumour cell line growth inhibition, 48 h
RECORDED METRIC: TGI (µM)
Number only, in µM; omit the unit.

Fill in TGI for record O=C1C[C@H](Sc2ccccc2)C2(OCCO2)[C@@H](Sc2ccccc2)C1
8.83

Note down TGI recorded for COc1ccc(/C=C2/CCc3cc4ccc(OC)cc4[o+]c32)c(O)c1
9.83

Give reported TGI value for CCC(=C(c1ccc(OCCCN(C)C)cc1)c1ccc(OCCCN(C)C)cc1)c1ccc(Cl)cc1
2.72

# return recorded TGI for input CCSc1nc(N)c2cn[nH]c2n1
74.1

Please list TGI recorded for the molecule C=CCO/N=C/c1cc(NC(=S)c2ccoc2C)ccc1Cl
36
